These entries and their values trace back to a melting point compilation (Tetko et al.; mined from patent text by program, amines drawn as free bases though some values may be those of a salt).

Readings of melting point for the listed compounds

Would you please look over these solved cases?
Compound | Reading
CC1(C#N)CCCc2nc(-c3ccccc3)ccc21 (configuration not stated) | 114 to 116 °C
CC(C)Nc1cccnc1N1CCN(C(=O)c2ccc(C(=O)N(CCO)c3ccccc3)cc2)CC1 | 71 to 72 °C
COc1cc2cc(C(N)=O)sc2cc1OC | 211 to 213 °C
COC(=O)c1nc(-c2ccc(Cl)c(OC)c2F)cc(NC(C)=O)c1C | 182 to 184 °C
CCOC(=O)c1cc(=O)c2c(OCC(O)COc3cccc4occc(=O)c34)cccc2o1 (configuration not stated) | 155 to 159 °C
CC1C(OC(=O)CCCCCCCCC(=O)OC2C(C)C(c3ccccc3)N(O)C(c3ccccc3)C2C)C(C)C(c2ccccc2)N(O)C1c1ccccc1 (configuration not stated) | 190 to 191 °C

Could you now look at the following compound, please?
Input line: // returns reported melting point for input `C=CCC(C)(CC=C)C(=O)O[C@H]1C[C@H](O)C=C2C=C[C@H](C)[C@H](CC[C@@H]3C[C@@H](O)CC(=O)O3)[C@H]21`
Output line: 115 to 116 °C

* * *

Readings of melting point for the listed compounds

Input line: // returns reported melting point for input `CCOc1ccc2nc(C)cc(=O)n2c1C`
Output line: 112 to 114 °C

Input line: Next compound: OCC1OC(OCc2ccccc2)C(OCc2ccccc2)C1O (stereo not given)
Output line: 73 to 74 °C

Input line: Next compound: CCN(CC)c1ccc(S(=O)(=O)N2CC(O)CC2=S)cc1 (stereo not given)
Output line: 149 to 150 °C

Input line: Next compound: `COCOc1cc(OC)ccc1C(=O)c1ccc(OCc2nc(-c3ccccc3)oc2C)cc1C`
Output line: 107 to 108 °C

Input line: Next compound: `CC(C)=C1C(=O)N(c2ccc(O)cc2)C(=O)/C1=C(\C)c1c(C)n(C)c2ccccc12`
Output line: 231 to 233 °C

* * *

Observation Type: melting point (°C)
Lab book: enter the figure in °C, no units written.

Smiles String | Result Units | melting point
Cc1cc(COc2ccc(S(=O)(=O)NC[C@@H](C(=O)NO)N3CCN(Cc4ccccc4)CC3)cc2)c2ccccc2n1 | °C | 188

Could you now look at the following molecule, please?
Input line: // returns reported melting point for input `O=C(O)COc1cc(F)c(N2CCOCC2)cc1C(=O)NCc1ccc(Br)cc1F`
Output line: 180

* * *

Observation Type: melting point

Would you please look over these solved cases?
Compound | melting point
Cc1noc(-c2cc(-c3ccccc3)c(=O)n3c2-c2sccc2SCC3)n1 | 183 to 185 °C
CCCCc1c(C)[nH]c(C(=O)OCC)c1OCC1CO1 (stereo not drawn) | 125 to 127 °C
N#Cc1cc(O)c2[nH]c(=O)oc2c1 | > 220 °C

Input line: // returns reported melting point for input `CCCCc1ncc(/C=C(\Cc2ccc(OC)cc2)c2nnn[nH]2)n1Cc1ccccc1Cl`
Output line: 168 to 171 °C

Input line: Next compound: `NC(=NO)c1nc(Cl)c(Cl)[nH]1`
Output line: 270 to 275 °C

Input line: Next compound: `Cc1cc(Br)nc(Br)c1`
Output line: 77 °C

Input line: Next compound: CCOC(=O)C(=CC(C)c1ccc(Br)cc1)CC(=O)O (stereo not drawn)
Output line: 107 °C

Input line: Next compound: `CCN(CC)C(=O)c1ccc(/C=C(\C)c2ccc3c(c2)C(C)(C)CCC3(C)C)cc1`
Output line: 111 to 112 °C
